measured_parameter: pKi
Please express pKi as -log10 of the molar concentration.

[ask] Given the entry CCN[C@H]1CC(C)S(=O)(=O)c2sc(S(=O)(=O)NC(=O)OCCCCO[N+](=O)[O-])cc21 (stereo partly shown) [Ex. 7] , what pKi was observed with hCA II (Homo sapiens)?
[reply] 6.05
